MEASURED_TARGET: serotoninergic 5-HT1A receptor (Homo sapiens)
Sequence (P08908 whole entry): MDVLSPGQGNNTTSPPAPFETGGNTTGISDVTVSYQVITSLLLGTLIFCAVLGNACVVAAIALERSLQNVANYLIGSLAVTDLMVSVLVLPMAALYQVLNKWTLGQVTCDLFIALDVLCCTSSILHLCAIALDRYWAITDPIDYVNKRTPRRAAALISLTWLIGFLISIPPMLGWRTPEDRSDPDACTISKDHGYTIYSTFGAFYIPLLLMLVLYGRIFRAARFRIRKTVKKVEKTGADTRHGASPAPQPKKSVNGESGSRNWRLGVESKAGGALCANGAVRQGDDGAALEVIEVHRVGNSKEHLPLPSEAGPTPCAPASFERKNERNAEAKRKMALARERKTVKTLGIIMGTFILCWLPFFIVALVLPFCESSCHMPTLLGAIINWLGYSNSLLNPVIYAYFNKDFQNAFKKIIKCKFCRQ
METHOD_NOTES: Binding assay 5-HT1A (h), [3H]8-OH-DPAT, HEK-293 cells
Set-up: expressed in transfected cells; host or cells: HEK-293 cells
CONDITION_DETAILS: read-out: 5-HT1A
Item-by-item account of inhibition at 1 µM
READOUT_KIND: inhibition at 1 µM (%)

[[record]]
molecule = "O=S(=O)(NCCCCN1CCN(c2cccc3c2OCCO3)CC1)c1cc2ccccc2s1 [Compound 399]"
unit_annotation = "%"
numeric_readout = 99

[[record]]
molecule = "O=S(=O)(NCCCCN1CCN(c2cccc3c2OCCO3)CC1)c1ccc2c(c1)OCO2 [Compound 404]"
unit_annotation = "%"
numeric_readout = 97

[[record]]
molecule = "Cc1[nH]c2ccc(Cl)cc2c1C1=CCN(CCCNS(=O)(=O)c2ccc(Cl)cc2)CC1 [Compound 444]"
unit_annotation = "%"
numeric_readout = 51

[[record]]
molecule = "O=S(=O)(NCCCN1CCN(c2cccc3c2OCCO3)CC1)c1ccc2ccccc2c1 [Compound 406]"
unit_annotation = "%"
numeric_readout = 99

[[record]]
molecule = "COc1cccc(S(=O)(=O)NCCCN2CCC(c3noc4cc(F)ccc34)CC2)c1 [Compound 332]"
unit_annotation = "%"
numeric_readout = 71

[[record]]
molecule = "O=c1[nH]c2ccc(S(=O)(=O)NCCN3CCN(c4nsc5ccccc45)CC3)cc2o1 [Compound 12]"
unit_annotation = "%"
numeric_readout = 99

[[record]]
molecule = "O=C1COc2c(cccc2N2CCN(CCCCNS(=O)(=O)c3ccc(C(F)(F)F)cc3)CC2)N1 [Compound 429]"
unit_annotation = "%"
numeric_readout = 88

[[record]]
molecule = "Cn1ccc2c(S(=O)(=O)NCCCCN3CCC(c4noc5cc(F)ccc45)CC3)cccc21 [Compound 310]"
unit_annotation = "%"
numeric_readout = 91

[[record]]
molecule = "O=S(=O)(NCCCN1CCC(c2noc3cc(F)ccc23)CC1)c1cc2ccccc2o1 [Compound 349]"
unit_annotation = "%"
numeric_readout = 49

[[record]]
molecule = "O=S(=O)(NCCCN1CCN(c2nsc3ccccc23)CC1)c1c[nH]c2ncccc12 [Compound 270]"
unit_annotation = "%"
numeric_readout = 75

[[record]]
molecule = "O=c1[nH]c2ccc(S(=O)(=O)NCCCCN3CCN(c4cccc5c4OCCO5)CC3)cc2o1 [Compound 403]"
unit_annotation = "%"
numeric_readout = 98

[[record]]
molecule = "Cc1[nH]c2ccc(Cl)cc2c1C1=CCN(CCNS(=O)(=O)c2ccc(F)cc2)CC1 [Compound 449]"
unit_annotation = "%"
numeric_readout = 57

[[record]]
molecule = "Cc1[nH]c2ccc(Cl)cc2c1C1=CCN(CCCNS(=O)(=O)c2cccc(O)c2)CC1 [Compound 445]"
unit_annotation = "%"
numeric_readout = 93

[[record]]
molecule = "O=S(=O)(NCCCCN1CCN(c2nsc3ccccc23)CC1)c1cccc(F)c1 [Compound 71]"
unit_annotation = "%"
numeric_readout = 89

[[record]]
molecule = "CC(C)(C)c1ccc(S(=O)(=O)NCCCN2CCC(c3noc4cc(F)ccc34)CC2)cc1 [Compound 333]"
unit_annotation = "%"
numeric_readout = 42

[[record]]
molecule = "O=c1[nH]c2ccc(S(=O)(=O)NCCCN3CCN(c4nsc5ccccc45)CC3)cc2o1 [Compound 8]"
unit_annotation = "%"
numeric_readout = 100

[[record]]
molecule = "O=S(=O)(NCCCN1CCN(c2nsc3ccccc23)CC1)c1cccc(Br)c1 [Compound 253]"
unit_annotation = "%"
numeric_readout = 99


These entries and their values trace back to patent US8822517B2.
